// data source = ChEMBL document CHEMBL1137928

The following compounds each carry a recorded pIC50 for Plasmepsin II (Plasmodium falciparum, UniProt P46925).
Interpret pIC50 as the negative base-10 log of the concentration measured in mol/L.

Answered cases to consult:
CCCCNC(=O)C[C@H](O)[C@H](CC(C)C)NC(=O)[C@@H](NC(=O)c1ccc2cc(C(=O)OCCCC(=O)N[C@H](CC(C)C)C(=O)N[C@H](CCCCN)C(=O)NCCCC(C)Nc3cc(OC)cc4cccnc34)ccc2c1)[C@H](C)CC (stereo not given in full) = 8.02
CCCCNC(=O)C[C@H](O)[C@H](CC(C)C)NC(=O)[C@@H](NC(=O)CCC(=O)N[C@@H](CC(C)C)C(=O)N[C@@H](CCCCN)C(=O)NCCCC(C)Nc1cc(OC)cc2cccnc12)[C@H](C)CC (stereo not given in full) = 6.40
CCCCNC(=O)C[C@H](O)[C@H](CC(C)C)NC(=O)[C@@H](NC(=O)c1ccc2cc(C(=O)N[C@H](CC(C)C)C(=O)N[C@H](CCCCN)C(=O)NCCCC(C)Nc3cc(OC)cc4cccnc34)ccc2c1)[C@H](C)CC (stereo not given in full) = 8.82
CCCCNC(=O)C[C@H](O)[C@H](CC(C)C)NC(=O)[C@@H](NC(=O)Cc1ccc(CC(=O)N[C@@H](CC(C)C)C(=O)N[C@@H](CCCCN)C(=O)NCCCC(C)Nc2cc(OC)cc3cccnc23)cc1)[C@H](C)CC (stereo not given in full) = 6.87

Query block: Jot down pIC50 (Plasmepsin II (Plasmodium falciparum, UniProt P46925)) of CCCCNC(=O)C[C@H](O)[C@H](CC(C)C)NC(=O)[C@@H](NC(=O)c1ccc(Oc2ccc(C(=O)N[C@H](CC(C)C)C(=O)N[C@H](CCCCN)C(=O)NCCCC(C)Nc3cc(OC)cc4cccnc34)cc2)cc1)[C@H](C)CC (stereo not given in full) .
Result block: 9.23

###

- System: Plasmodium falciparum
- testMethodNotes: In vitro inhibitory activity against chloroquine-resistant Plasmodium falciparum W-2 infected human erythrocytes
- Assay type: functional, organism-based
recordedMetric: IC50 (nM)
Give a bare numeral; the unit nM is implied.

Answered cases to consult:
CCCCNC(=O)C[C@H](O)[C@H](CC(C)C)NC(=O)[C@@H](NC(=O)c1ccc2cc(C(=O)N[C@H](CC(C)C)C(=O)N[C@H](CCCCN)C(=O)NCCCC(C)Nc3cc(OC)cc4cccnc34)ccc2c1)[C@H](C)CC (some centres undefined) = 4700
CCCCNC(=O)C[C@H](O)[C@H](CC(C)C)NC(=O)[C@@H](NC(=O)Cc1ccc(CC(=O)N[C@@H](CC(C)C)C(=O)N[C@@H](CCCCN)C(=O)NCCCC(C)Nc2cc(OC)cc3cccnc23)cc1)[C@H](C)CC (some centres undefined) = 4200
CCCCNC(=O)C[C@H](O)[C@H](CC(C)C)NC(=O)[C@@H](NC(=O)c1ccc2cc(C(=O)OCCCC(=O)N[C@H](CC(C)C)C(=O)N[C@H](CCCCN)C(=O)NCCCC(C)Nc3cc(OC)cc4cccnc34)ccc2c1)[C@H](C)CC (some centres undefined) = 1000

Query block: Determine its reported IC50: CCCCNC(=O)C[C@H](O)[C@H](CC(C)C)NC(=O)[C@@H](NC(=O)c1ccc(Oc2ccc(C(=O)N[C@H](CC(C)C)C(=O)N[C@H](CCCCN)C(=O)NCCCC(C)Nc3cc(OC)cc4cccnc34)cc2)cc1)[C@H](C)CC (some centres undefined)
Result block: 700

###

- assayedTarget: Plasmepsin II (Plasmodium falciparum, UniProt P46925)
- Sequence (P46925 whole entry): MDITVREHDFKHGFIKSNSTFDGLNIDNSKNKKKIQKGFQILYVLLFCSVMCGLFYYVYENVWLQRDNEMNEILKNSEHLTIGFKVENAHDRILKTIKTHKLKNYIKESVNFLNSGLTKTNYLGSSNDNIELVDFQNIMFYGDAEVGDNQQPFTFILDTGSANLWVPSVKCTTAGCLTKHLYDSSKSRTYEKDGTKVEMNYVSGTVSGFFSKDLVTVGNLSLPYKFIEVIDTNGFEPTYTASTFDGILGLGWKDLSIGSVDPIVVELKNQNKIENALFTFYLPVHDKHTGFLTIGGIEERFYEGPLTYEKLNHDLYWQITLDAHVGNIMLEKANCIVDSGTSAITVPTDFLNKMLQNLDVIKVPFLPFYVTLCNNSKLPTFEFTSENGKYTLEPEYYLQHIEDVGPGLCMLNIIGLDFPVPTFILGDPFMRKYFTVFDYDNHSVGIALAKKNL
recordedMetric: pKi
Interpret pKi as the negative base-10 log of the concentration measured in mol/L.

Query block: Jot down pKi (Plasmepsin II (Plasmodium falciparum, UniProt P46925)) of CCCCNC(=O)C[C@H](O)[C@H](Cc1ccccc1)NC(=O)[C@@H](NC(=O)COc1ccc2ccccc2c1)[C@@H](C)CC .
Result block: 6.96
